Assay: Single oral dose pharmacokinetic study of eliglustat tartrate in mild or moderate hepatic impairment and matched healthy subjects (Example 1)
Type: in vivo, human
Conditions: both sexes, human, plasma, po, 100 mg, CYP2D6 EM, healthy, N=7; single 100 mg eliglustat tartrate oral; plasma; read-out: Cmax, mean ± SD
measurement-label: Cmax (ng/mL)
Write it as a number; the unit ng/mL goes unstated.

Reported Cmax, molecule CCCCCCCC(=O)N[C@H](CN1CCCC1)[C@H](O)c1ccc2c(c1)OCCO2 : ____
10.4

---

Experiment: Phase 1 single dose pharmacokinetic study of eliglustat tartrate in severe renal impairment and matched normal renal function subjects (Example 3)
Type: in vivo, human
Details: both sexes, human, plasma, oral, 100 mg, CYP2D6 EM, severe RI, coadministered weak CYP3A inhibitor amlodipine, N=5; read-out: AUC, geometric mean
measurement-label: AUC (ng·h/mL)
Write it as a number; the unit ng·h/mL goes unstated.

Reported AUC, compound CCCCCCCC(=O)N[C@H](CN1CCCC1)[C@H](O)c1ccc2c(c1)OCCO2 [eliglustat] : ____
98.3

---

Assay: Single oral dose pharmacokinetic study of eliglustat tartrate in mild or moderate hepatic impairment and matched healthy subjects (Example 1)
Format: in vivo, human
Details: both sexes, human, plasma, po, 100 mg, CYP2D6 EM, healthy, N=7; single 100 mg eliglustat tartrate oral; plasma; read-out: Vz/F, geometric mean
measurement-label: Vd/F (L)
Write it as a number; the unit L goes unstated.

Reported Vd/F, compound CCCCCCCC(=O)N[C@H](CN1CCCC1)[C@H](O)c1ccc2c(c1)OCCO2 : ____
14400

Reference source: patent US10888544B2
